This collection of values is drawn from ChEMBL document CHEMBL1124811.

Consider the following compounds; for each one, report its pKi.
- TARGET_DESC: Oxytocin receptor (Rattus norvegicus, UniProt P70536)
- Sequence (P70536 whole entry): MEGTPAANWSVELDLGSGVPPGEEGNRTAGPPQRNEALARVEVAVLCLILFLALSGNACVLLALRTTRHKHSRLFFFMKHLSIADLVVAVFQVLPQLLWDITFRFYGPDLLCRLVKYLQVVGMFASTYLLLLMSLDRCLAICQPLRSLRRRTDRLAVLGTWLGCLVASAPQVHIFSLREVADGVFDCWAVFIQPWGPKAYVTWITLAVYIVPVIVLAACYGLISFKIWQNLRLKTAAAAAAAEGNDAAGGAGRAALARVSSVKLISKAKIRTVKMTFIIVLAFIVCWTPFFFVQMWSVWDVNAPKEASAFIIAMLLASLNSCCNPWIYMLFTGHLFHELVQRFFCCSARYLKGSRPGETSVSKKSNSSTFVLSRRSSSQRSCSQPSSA
Non-standard residues stand in square brackets, D forms with d. Residues, ends and D or L forms follow the SMILES beside them. dNMeF = CN[C@H](Cc1ccccc1)C(=O)O; Pip = O=C(O)[C@@H]1CCCCN1; dPip = O=C(O)[C@H]1CCCCN1
The quantity pKi is defined as the negative base-10 logarithm of the molar concentration.

Q: What does the record list as pKi for CC[C@H](C)[C@@H]1NC(=O)[C@@H](Cc2c[nH]c3ccccc23)NC(=O)[C@@H]2CCCN2C(=O)[C@@H](Cc2ccccc2)N(C)C(=O)[C@@H]2CCCCN2C(=O)[C@H]2CCCCN2C1=O (cyclo(I[dPip][Pip][dNMeF]P[dW])) ?
A: 8.09

Q: What does the record list as pKi for CC[C@H](C)[C@@H]1NC(=O)[C@@H](Cc2ccccc2)NC(=O)[C@@H]2CCCN2C(=O)[C@@H](Cc2ccccc2)N(C)C(=O)[C@@H]2CCCN2C(=O)[C@H]2CCCN2C1=O (cyclo([dNMeF]P[dF]I[dP]P)) ?
A: 5.85

Q: What does the record list as pKi for C[C@@H]1NC(=O)[C@@H](Cc2ccccc2)NC(=O)[C@@H]2CCCN2C(=O)[C@@H](Cc2ccccc2)N(C)C(=O)[C@@H]2CCCCN2C(=O)[C@H]2CCCCN2C1=O (cyclo(A[dPip][Pip][dNMeF]P[dF])) ?
A: 4.92

Q: What does the record list as pKi for CC[C@H](C)[C@@H]1NC(=O)[C@@H](Cc2ccccc2)NC(=O)[C@@H]2CCCN2C(=O)[C@@H](Cc2ccccc2)NC(=O)[C@@H]2CCCCN2C(=O)[C@H]2CCCCN2C1=O (cyclo(I[dPip][Pip][dF]P[dF])) ?
A: 6.85

###

- TARGET_DESC: UniProtKB Q00788
- Sequence (Q00788 whole entry): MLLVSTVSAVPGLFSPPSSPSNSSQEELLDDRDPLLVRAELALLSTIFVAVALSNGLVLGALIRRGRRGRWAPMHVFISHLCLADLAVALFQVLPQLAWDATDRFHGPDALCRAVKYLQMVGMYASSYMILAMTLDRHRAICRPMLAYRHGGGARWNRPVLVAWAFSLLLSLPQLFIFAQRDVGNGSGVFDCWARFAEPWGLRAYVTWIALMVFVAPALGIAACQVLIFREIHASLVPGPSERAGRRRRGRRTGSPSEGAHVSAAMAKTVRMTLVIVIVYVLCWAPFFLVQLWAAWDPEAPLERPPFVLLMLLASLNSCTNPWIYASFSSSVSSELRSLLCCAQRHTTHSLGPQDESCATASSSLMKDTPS
Non-standard residues stand in square brackets, D forms with d. Residues, ends and D or L forms follow the SMILES beside them. dNMeF = CN[C@H](Cc1ccccc1)C(=O)O; Pip = O=C(O)[C@@H]1CCCCN1; dPip = O=C(O)[C@H]1CCCCN1; Orn = NCCC[C@H](N)C(=O)O
READOUT_KIND: Ki (nM)
Respond numerically; units are nM and should not be typed.

Q: What does the record list as Ki for CC[C@H](C)[C@@H]1NC(=O)[C@@H](Cc2c[nH]c3ccccc23)NC(=O)[C@@H]2CCCN2C(=O)[C@@H](Cc2ccccc2)N(C)C(=O)[C@@H]2CCCCN2C(=O)[C@H]2CCCCN2C1=O (cyclo(I[dPip][Pip][dNMeF]P[dW])) ?
A: 260

Q: What does the record list as Ki for CC[C@H](C)[C@@H]1NC(=O)[C@@H](Cc2c[nH]c3ccccc23)NC(=O)[C@@H]2CCCN2C(=O)[C@@H](Cc2c[nH]cn2)NC(=O)[C@@H]2CCCCN2C(=O)[C@H]2CCCCN2C1=O (cyclo(I[dPip][Pip][dH]P[dW])) ?
A: 1800

Q: What does the record list as Ki for `CC[C@H](C)[C@@H]1NC(=O)[C@@H](Cc2ccc3ccccc3c2)NC(=O)[C@@H]2CCCN2C(=O)[C@@H](Cc2c[nH]cn2)NC(=O)[C@@H]2CCCCN2C(=O)[C@H]2CCCCN2C1=O` ?
A: 320

Q: What does the record list as Ki for CC[C@H](C)[C@@H]1NC(=O)[C@@H](Cc2ccccc2)NC(=O)[C@@H]2CCCN2C(=O)[C@@H](Cc2ccccc2)N(C)C(=O)[C@@H]2CCCN2C(=O)[C@H]2CCCN2C1=O (cyclo([dNMeF]P[dF]I[dP]P)) ?
A: 33000

Q: What does the record list as Ki for CC[C@H](C)[C@@H]1NC(=O)[C@@H](Cc2ccccc2)NC(=O)[C@@H]2CCCN2C(=O)[C@@H](Cc2ccccc2)NC(=O)[C@@H]2CCCCN2C(=O)[C@H]2CCCCN2C1=O (cyclo(I[dPip][Pip][dF]P[dF])) ?
A: 4500

Q: What does the record list as Ki for CC[C@H](C)[C@@H]1NC(=O)[C@@H](Cc2c[nH]c3ccccc23)NC(=O)[C@@H]2CCCN2C(=O)[C@@H](Cc2ccccc2)N(C)C(=O)[C@H](CCCN)NC(=O)[C@H]2CCCCN2C1=O (cyclo(I[dPip][Orn][dNMeF]P[dW])) ?
A: 500

Q: What does the record list as Ki for CCOc1ccc(C[C@H]2NC(=O)[C@@H]3CCCN3C(=O)[C@@H](Cc3ccccc3)N(C)C(=O)[C@@H]3CCCCN3C(=O)[C@H]3CCCCN3C(=O)[C@H]([C@@H](C)CC)NC2=O)cc1 (cyclo(I[dPip][Pip][dNMeF]P[dY](Et))) ?
A: 250
